target: M3 muscarinic receptor (Homo sapiens, UniProt P20309); assay: accumulation of IPX, M3 CHO cells (M3Gq); type: cell-based; set-up: host or cells: CHO cells, stably transfected; settings: M3 (↑IPX), preferential response, Table 7; operational model; read-out: pKA (converted)
Sequence (P20309 whole entry): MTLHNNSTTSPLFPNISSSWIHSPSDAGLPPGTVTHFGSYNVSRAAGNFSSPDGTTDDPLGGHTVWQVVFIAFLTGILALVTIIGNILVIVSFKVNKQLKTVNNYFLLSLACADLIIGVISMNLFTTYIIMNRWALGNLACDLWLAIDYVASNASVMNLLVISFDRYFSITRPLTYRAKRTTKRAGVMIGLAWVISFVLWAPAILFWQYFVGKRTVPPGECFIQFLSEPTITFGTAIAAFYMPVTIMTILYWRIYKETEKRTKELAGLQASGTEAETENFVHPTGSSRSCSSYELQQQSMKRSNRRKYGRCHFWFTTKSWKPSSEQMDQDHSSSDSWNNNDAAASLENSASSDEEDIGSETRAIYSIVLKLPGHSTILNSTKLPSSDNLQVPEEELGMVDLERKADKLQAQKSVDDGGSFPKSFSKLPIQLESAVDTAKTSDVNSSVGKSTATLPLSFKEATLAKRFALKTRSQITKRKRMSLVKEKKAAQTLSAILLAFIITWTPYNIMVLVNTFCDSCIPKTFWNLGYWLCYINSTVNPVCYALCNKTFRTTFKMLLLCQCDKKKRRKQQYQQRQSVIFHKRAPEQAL
Please respond with reported Kd for every item in the list.
Unit µM implied. Number only.

Requested field: Kd. Item: `Brc1ccc(CN2CC=CCC2)s1.Cl`
3.98

Requested field: Kd. Item: C[N+]1(Cc2cccs2)CC=CCC1.[I-] (stereo not shown)
3.16

Requested field: Kd. Item: `C1=CCN(Cc2cccs2)CC1.Cl`
5.01

Requested field: Kd. Item: C[N+]1(Cc2ccc(Br)s2)CC=CCC1.[I-] (stereo not shown)
2.51

Requested field: Kd. Item: C[N+]1(Cc2ccc(Cl)s2)CC=CCC1.[I-] (stereo not shown)
3.98

Requested field: Kd. Item: `Cc1ccc(CN2CC=CCC2)s1.Cl`
15.8

Requested field: Kd. Item: Cc1ccc(C[N+]2(C)CC=CCC2)s1.[I-] (stereo not shown)
5.01
